Tested on: LOX IMVI melanoma
RUN_DESCRIPTION: NCI tumour cell line growth inhibition, 48 h; in the data active means GI50 below about 0.43 µM; inactive means the rest
Could you please pick one outcome from this set? yes (1) = active, no (0) = inactive

COC(=O)c1c2c(c(C)[n+]([O-])c1C)C(=O)C=C(NCc1ccc(Br)cc1)C2=O; yes (1)
O=S1CCN(Cc2ccc(-c3ccc4ncnc(Nc5ccc(OCc6ccccc6)c(F)c5)c4c3)o2)CC1; no (0)
COc1ccc(Oc2nc(Nc3ccc(N4CCOCC4)cc3)ncc2NC(=O)Nc2cc(OC)cc(OC)c2)cc1; no (0)

# input Returns: the outcome recorded for N#Cc1ccc(N2Cc3cc(Cl)ccc3OC3=C2C(=O)N(Cc2ccc(F)cc2)C3=O)cc1 in this assay.
# output no (0)

# input Next up: Cc1cc(C(=O)N2CCN(C)CC2)c2c(=O)n(-c3ccccc3)c(=O)n(CC(O)CN3CCN(c4ncccn4)CC3)c2n1 (configuration not stated)
# output no (0)

# input What about this molecule? O=[N+]([O-])c1ccc(N/N=C/c2ccccc2O)nc1
# output no (0)

# input Another molecule to check: Oc1[nH]c2ccc(Cl)cc2c1/C=c1/ccc2c(c1)N=C(c1ccc(C(F)(F)F)cc1)N=2
# output no (0)

# input Try the molecule O=Cc1c[nH]c2ccc(-c3csc4ccccc34)cc12
# output no (0)

# input Same thing, different molecule: Cc1cc(Br)c2nsnc2c1[N+](=O)[O-]
# output no (0)

# input Further, for Cc1ccc(-n2nnc3c(sc4ccccc43)c2=O)cc1 ?
# output no (0)

# input Now consider Cc1cn(C2CC(N=[N+]=[N-])C(CO)O2)c(=O)[nH]c1=O (configuration not stated) and answer again.
# output no (0)

# input Another molecule: COc1cccc2c1C(=O)c1c(O)c3c(c(O)c1C2=O)C[C@@](O)(C(C)=O)C[C@@H]3OC1CC(N(C)C)C(O)C(C)O1 (some centres not stated)
# output yes (1)

# input What do you get for CC[C@@]1(O)C(=O)OCc2c1cc1n(c2=O)Cc2cc3c(Cl)c4c(cc3nc2-1)OCO4 ?
# output yes (1)

# input What about C=C1C(=O)O[C@H]2[C@H]1CC/C(COC(=O)c1cccc3ccccc13)=C\CC[C@@]1(C)O[C@@H]21 ?
# output no (0)

# input Try NS(=O)(=O)c1cccc(-c2cc3ccncc3cc2OCc2ccccc2)c1 next.
# output no (0)

# input Now this one: CC(=O)NC1CCCN(O)C(=O)/C=C(/C)CCOC(=O)C(NC(C)=O)CCCN(O)C(=O)/C=C(/C)CCOC(=O)C(NC(C)=O)CCCN(O)C(=O)/C=C(/C)CCOC1=O.[Fe] (configuration not stated)
# output no (0)

# input Also check O=C(Nc1ccc2cc3ccc(NC(=O)N4CCCCCC4)cc3nc2c1)N1CCCCCC1
# output no (0)

---

So I've got a bunch of compounds here, and I need their TGI values.
System: HOP-62 NSCLC
RUN_DESCRIPTION: NCI tumour cell line growth inhibition, 48 h

# count of solved cases: 5
COc1ccccc1NC(=O)CC(=O)n1nc(-c2ccccc2)c(N=Nc2ccccc2[N+](=O)[O-])c1-c1ccccc1; > 100 µM
O=C(Cc1nc2ccc(C(=O)c3ccccc3)cc2[nH]c1=O)C(=O)Nc1ccc(C(F)(F)F)cc1[N+](=O)[O-]; > 100 µM
C[N+](C)(C)CC(=O)N/N=C/c1oc(-c2cccc([N+](=O)[O-])c2)c(-c2cccc([N+](=O)[O-])c2)c1[N+](=O)[O-]; > 100 µM
O=S1CCN(Cc2ccc(-c3ccc4ncnc(Nc5ccc(OCc6ccccc6)c(F)c5)c4c3)o2)CC1; > 25 µM
O=c1c2cc(Br)ccc2[nH]c(=S)n1-c1ccccc1; > 100 µM

Give TGI for each of the items listed below.
1. CCN1CCN(CC(=O)Nc2nc3ccc(NCc4ccc(C)cc4)cc3s2)CC1
2. Cc1nn2c(=O)n(-c3cccc(-n4nnc5c(-c6ccccc6)c(C)nn5c4=O)c3C)nnc2c1-c1ccccc1
3. CC(=O)N1N=C(c2ccc3ccccc3c2O)CC1c1ccc(Cl)cc1Cl (centres undefined)

# output
1. 8.03 µM
2. > 100 µM
3. > 100 µM
